Values were extracted from paper PMC5540273.

system: JNK1; construct: gene MAPK8; settings: concentration: 1 μM, replicates: in singlicate; n = 1;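 note: KINOMEscan kinase panel screen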
Please note: Satisfied applies when %Inh is 3% or greater, and Not satisfied applies otherwise.

- Cc1ccc(-c2ccc3c(ccc4sc5c(c43)NC[C@@H](C)N=C5N(C)C)n2)cn1: Satisfied
- Nc1n[nH]c2ncc(-c3ccccc3)cc12: Satisfied
- COC(=O)c1c(-c2ccccc2)c2cc(Br)ccc2c(=O)n1Cc1ccc(S(C)(=O)=O)cc1: Satisfied
- COc1cc2ncn(-c3cc(OCc4ccc(S(C)(=O)=O)cc4)c(C(N)=O)s3)c2cc1OC: Satisfied
- Cc1nnc(-c2ccc(C)c(-c3ccc(C(=O)O)cc3)c2)o1: Not satisfied

Now look at this one.
# input Given the entry COc1cc2ncn(-c3cc(OCc4ccncc4Br)c(C(N)=O)s3)c2cc1OC , answer whether its %Inh meets or surpasses 3%.
# output Not satisfied

###

test system: NEK7; conditions: concentration: 1 μM, replicates: in singlicate; n = 1
measured-quantity: %Inh (%)
Write down the numeric answer in % and omit the unit.

# annotated cases, reported %Inh shown
* Cc1nc(N(C)[C@H]2CN(C(=O)CC#N)CC[C@H]2C)c2cc[nH]c2n1 | 0
* COc1ccc(Nc2nccc(N3CCC(NS(=O)(=O)c4ccc(NC(C)=O)cc4)C3)n2)cc1 (stereo not shown) [GSK1379729] | 3
* CN(C)c1cc(-c2ccc3c(N)n[nH]c3c2)nc(N)n1 [GSK2219329] | 0

# input Provide only the value of recorded %Inh for COc1cc2nccc(Nc3cccc(Oc4ccccc4)c3)c2cc1OC.Cl [GW284543]
# output 11

# input Provide only the value of recorded %Inh for Cc1cccc(-c2nc(Nc3ccc4c(cnn4C)c3)c3ccccc3n2)n1 [GW876731]
# output 2

# input Provide only the value of recorded %Inh for CCS(=O)c1ccc(-c2coc3ccc(-c4nnc(C)o4)cc23)cc1 (stereo not shown)
# output 0

# input Provide only the value of recorded %Inh for Cl.NS(=O)(=O)c1cccc(Nc2cc(-c3ccc(F)cc3)n[nH]2)c1 [GW824645]
# output 0

# input Provide only the value of recorded %Inh for Nc1nccc2scc(-c3ccc4c(c3)CCN4C(=O)Cc3ccccc3)c12 [GSK2576924]
# output 0

# input Provide only the value of recorded %Inh for COc1ccc(-c2cc3c(C)nc(N)nc3n([C@H]3CC[C@H](OCCO)CC3)c2=O)cn1
# output 0

# input Provide only the value of recorded %Inh for COc1cc(OC)cc(-c2cc3cnc(N)nc3nc2NC(=O)NC(C)(C)C)c1
# output 1

# input Provide only the value of recorded %Inh for Cc1nnc(-c2ccc3ncn(-c4ccc(S(C)=O)cc4)c3c2)o1 (stereo not shown)
# output 2

# input Provide only the value of recorded %Inh for OCCCNc1nccc(-c2c(-c3cccc(C(F)(F)F)c3)nn3cc(C(F)(F)F)ccc23)n1 [GW630813]
# output 0

# input Provide only the value of recorded %Inh for COc1cc(Nc2nccc(N3CCC(NC(=O)C4COc5ccccc5O4)C3)n2)cc(OC)c1OC (stereo not shown) [GSK1379761]
# output 49

# input Provide only the value of recorded %Inh for CCCC(=O)Nc1n[nH]c2ncc(-c3cccc4ccccc34)cc12 [SB-642057]
# output 0

# input Provide only the value of recorded %Inh for CCC(=O)c1c(-c2ccccc2)c2cc(Cl)ccc2c(=O)n1Cc1ccc(C(=O)O)cc1
# output 0

# input Provide only the value of recorded %Inh for Cc1c(Cn2c(C)nn3c(=O)cc(N4CCO[C@H](C)C4)nc23)cccc1C(F)(F)F [GSK2373690]
# output 0
